- ASSAY COMMENT: physchem
Counter-ions that a name gives are not always drawn.
EXPERIMENTAL READOUT: solubility class

# annotated cases, reported solubility class shown
MOLECULE	solubility class
C[C@@H]1C[C@H]2[C@@H]3CCC4=CC(=O)C=C[C@]4(C)[C@@]3(F)[C@@H](O)C[C@]2(C)[C@@]1(O)C(=O)CO [dexamethasone]	low solubility
CC(C)(C)NC[C@H](O)COc1nsnc1N1CCOCC1 [timolol maleate]	high solubility
CCNC(=O)CCC/C=C\C[C@@H]1[C@@H](/C=C/[C@@H](O)CCc2ccccc2)[C@H](O)C[C@@H]1O [bimatoprost]	low solubility
CCN[C@H]1C[C@H](C)S(=O)(=O)c2sc(S(N)(=O)=O)cc21 [dorzolamide HCl]	high solubility

Proceed to the following item.
Name the recorded solubility class for CC(C)OC(=O)CCC/C=C\C[C@@H]1[C@@H](/C=C/[C@@H](O)COc2cccc(C(F)(F)F)c2)[C@H](O)C[C@@H]1O [travoprost isopropyl ester] . low solubility

* * *

- ASSAY COMMENT: physchem
Counter-ions that a name gives are not always drawn.
EXPERIMENTAL READOUT: solubility class

COMPOUND	RESULT VALUE
C[C@@H]1C[C@H]2[C@@H]3CCC4=CC(=O)C=C[C@]4(C)[C@@]3(F)[C@@H](O)C[C@]2(C)[C@@]1(O)C(=O)COP(=O)(O)O [dexamethasone sodium phosphate]	high solubility
C=C(CC)C(=O)c1ccc(OCC(=O)O)c(Cl)c1Cl [ethacrynic acid sodium salt]	high solubility

* * *

- ASSAY COMMENT: physchem
- EXPERIMENTAL SETUP: aqueous buffer
Counter-ions that a name gives are not always drawn.
# reported solubility; entries follow

COMPOUND	EXPERIMENTAL READOUT	RESULT VALUE
CC(C)(C)NC[C@H](O)COc1nsnc1N1CCOCC1 [timolol maleate]	solubility	> 1000 µg/mL
C=C(CC)C(=O)c1ccc(OCC(=O)O)c(Cl)c1Cl [ethacrynic acid sodium salt]	solubility	> 1000 µg/mL
CC(C)OC(=O)CCC/C=C\C[C@@H]1[C@@H](/C=C/[C@@H](O)COc2cccc(C(F)(F)F)c2)[C@H](O)C[C@@H]1O [travoprost isopropyl ester]	solubility	< 300 µg/mL
CC[C@H](C)C(=O)O[C@H]1C[C@@H](C)C=C2C=C[C@H](C)[C@H](CC[C@@H]3C[C@@H](O)CC(=O)O3)[C@H]21 [lovastatin]	solubility	< 300 µg/mL
CC(C)OC(=O)CCC/C=C\C[C@@H]1[C@@H](CC[C@@H](O)CCc2ccccc2)[C@H](O)C[C@@H]1O [latanoprost isopropyl ester]	solubility	< 300 µg/mL
C[C@@H]1C[C@H]2[C@@H]3CCC4=CC(=O)C=C[C@]4(C)[C@@]3(F)[C@@H](O)C[C@]2(C)[C@@]1(O)C(=O)CO [dexamethasone]	solubility	< 300 µg/mL

Param item = CC(=O)Nc1nnc(S(N)(=O)=O)s1 [acetazolamide] ; retrieve measured solubility. > 1000 µg/mL

Now the same for CCN[C@H]1C[C@H](C)S(=O)(=O)c2sc(S(N)(=O)=O)cc21 [dorzolamide HCl] > 1000 µg/mL
